The entries below come with measured Activity values attached.
Species: Rattus norvegicus
assay-explanation: Increase in [3H]GABA uptake initial velocity in Wistar rat synaptosomes measured per mg of protein pretreated at 100 uM for 20 mins with combined application of 30 uM NO-711 GAT1 blocker by scintillation counting
Type: functional, subcellular
measured-endpoint: Activity

1. NCC(CC(=O)O)C(F)(F)C(F)F (racemic)    27.4 pmol/min/mg
2. NC[C@@H](CC(=O)O)C(F)(F)F    23.7 pmol/min/mg
3. NC[C@@](O)(CC(=O)O)C(F)(F)F    27.9 pmol/min/mg
